- study-target: Plasminogen (Homo sapiens)
- Sequence (P00747 97-580 limits assumed): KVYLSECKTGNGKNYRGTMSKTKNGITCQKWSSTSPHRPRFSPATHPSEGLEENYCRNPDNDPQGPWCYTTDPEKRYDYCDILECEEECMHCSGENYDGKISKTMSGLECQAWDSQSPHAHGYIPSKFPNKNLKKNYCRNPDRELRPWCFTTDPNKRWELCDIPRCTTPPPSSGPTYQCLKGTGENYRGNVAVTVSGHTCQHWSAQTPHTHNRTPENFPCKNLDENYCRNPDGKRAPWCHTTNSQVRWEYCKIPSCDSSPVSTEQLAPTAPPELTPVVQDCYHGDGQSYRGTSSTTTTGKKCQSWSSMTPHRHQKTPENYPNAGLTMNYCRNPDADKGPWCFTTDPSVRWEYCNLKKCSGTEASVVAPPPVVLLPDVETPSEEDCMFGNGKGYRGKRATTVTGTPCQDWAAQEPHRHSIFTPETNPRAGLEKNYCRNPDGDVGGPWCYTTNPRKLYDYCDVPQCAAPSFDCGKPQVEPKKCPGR
- Sequence (P00747 581-810 limits assumed): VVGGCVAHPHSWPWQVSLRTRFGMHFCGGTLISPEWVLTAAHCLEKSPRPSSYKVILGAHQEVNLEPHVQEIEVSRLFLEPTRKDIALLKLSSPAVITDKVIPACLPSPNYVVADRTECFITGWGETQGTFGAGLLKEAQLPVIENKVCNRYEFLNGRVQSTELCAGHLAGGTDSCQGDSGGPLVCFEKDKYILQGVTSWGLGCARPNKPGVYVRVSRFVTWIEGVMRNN
- experiment-notes: Binding affinity to human plasmin assessed as slow binding constant in presence of Mes-DArg-Phe-Arg-AMC after 20 mins by Dixon plot analysis
Would you mind telling me the reported Ki of each entry?
Answers are plain numbers, in nM.

# annotated cases, reported Ki shown
INSERT INTO measurements (chem_smiles, study_target, value_measured) VALUES
  ('NCc1ccc(CNC(=O)[C@@H]2Cc3ccc(cc3)NC(=O)CCN3CCN(CCC(=O)Nc4ccc(cc4)C[C@@H](NS(=O)(=O)NC4CCCCC4)C(=O)N2)CC3)cc1', 'Plasminogen (Homo sapiens)', 0.43),
  ('COC(=O)N[C@@H]1Cc2ccc(cc2)NC(=O)CCN2CCN(CCC(=O)Nc3ccc(cc3)C[C@@H](C(=O)NCc3ccc(C(=N)N)cc3)NC1=O)CC2', 'Plasminogen (Homo sapiens)', 0.85),
  ('N=C(N)c1ccc(CNC(=O)[C@@H]2Cc3ccc(cc3)NC(=O)CCN3CCN(CCC(=O)Nc4ccc(cc4)C[C@@H](NS(=O)(=O)NC4CCCCC4)C(=O)N2)CC3)cc1', 'Plasminogen (Homo sapiens)', 0.15),
  ('NCc1ccc(CNC(=O)[C@@H]2Cc3ccc(cc3)NC(=O)CCN3CCN(CCC(=O)Nc4ccc(cc4)C[C@@H](NS(=O)(=O)c4ccccc4)C(=O)N2)CC3)cc1.O=C(O)C(F)(F)F.O=C(O)C(F)(F)F.O=C(O)C(F)(F)F', 'Plasminogen (Homo sapiens)', 0.54);

Exam item: Name the recorded Ki of the item "N=C(N)c1ccc(CNC(=O)[C@@H]2Cc3ccc(cc3)NC(=O)CN3CCN(CC3)CC(=O)Nc3ccc(cc3)C[C@@H](NS(=O)(=O)NC3CCCCC3)C(=O)N2)cc1" in your answer.
Marked response: 0.42
